All figures here come from patent US20240116985A1.

This section presents binders with their documented NanoBRET Abs IC50 values.
Test system: T1, B-cat-Halo (beta-catenin HaloTag construct expressed in HEK293 cells) (UniProt P35222 1-781)
T1 sequence (looked up): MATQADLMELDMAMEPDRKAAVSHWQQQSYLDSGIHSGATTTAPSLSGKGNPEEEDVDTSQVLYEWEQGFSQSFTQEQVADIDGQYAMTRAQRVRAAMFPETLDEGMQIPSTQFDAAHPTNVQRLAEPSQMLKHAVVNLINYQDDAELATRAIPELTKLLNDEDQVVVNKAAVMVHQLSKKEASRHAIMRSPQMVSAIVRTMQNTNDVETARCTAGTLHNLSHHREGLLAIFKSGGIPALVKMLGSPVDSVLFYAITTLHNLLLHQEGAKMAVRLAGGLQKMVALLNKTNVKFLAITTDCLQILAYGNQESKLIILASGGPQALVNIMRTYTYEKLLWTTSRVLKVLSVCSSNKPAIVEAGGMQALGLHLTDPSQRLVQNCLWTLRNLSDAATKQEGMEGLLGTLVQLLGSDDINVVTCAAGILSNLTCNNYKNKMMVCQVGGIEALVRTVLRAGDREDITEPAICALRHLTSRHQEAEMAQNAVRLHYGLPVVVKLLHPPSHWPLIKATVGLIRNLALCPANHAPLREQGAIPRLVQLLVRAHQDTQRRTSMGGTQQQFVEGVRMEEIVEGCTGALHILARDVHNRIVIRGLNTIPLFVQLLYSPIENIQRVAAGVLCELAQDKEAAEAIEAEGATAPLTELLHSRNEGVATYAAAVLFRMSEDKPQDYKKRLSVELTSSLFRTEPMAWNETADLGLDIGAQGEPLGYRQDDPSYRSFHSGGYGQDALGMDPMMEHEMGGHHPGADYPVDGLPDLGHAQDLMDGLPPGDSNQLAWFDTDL
Assay notes: cell-based or functional assay
Starred links: 1 amine or outer side, 2 acyl side, 3 side chain; linkers in the order of their positions; H or OH if unused. Positions of bridges follow the written chain, without caps; N, C: chain ends. Non-standard residues stand in square brackets, D forms with d. Primed or numbered codes have the meaning given here. PyrS2″ = (S)-3-amino-1-((pent-4-en-1-yloxy)carbonyl)pyrrolidine-3-carboxylic acid (stapling residue), C=CCCCOC(=O)N1CC[C@@](N[*:1])(C(=O)[*:2])C1; B5(4) = 2,2-bis(4-pentenyl)glycine = 2-amino-2-(pent-4-en-1-yl)hept-6-enoic acid (stitching residue), C=CCCCC(CCCC=C)(N[*:1])C(=O)[*:2]; Phe(3-COOH) = N[C@@H](Cc1cccc(C(=O)O)c1)C(=O)O; Phe(2-CF3) = N[C@@H](Cc1ccccc1C(F)(F)F)C(=O)O; Phe(2-Cl) = N[C@@H](Cc1ccccc1Cl)C(=O)O; Met(O2) = CS(=O)(=O)CC[C@H](N)C(=O)O; Bta = N[C@@H](Cc1csc2ccccc12)C(=O)O; αAllylPro = C=CC[C@@]1(C(=O)O)CCCN1; tBuAla = CC(C)(C)C[C@H](N)C(=O)O; 3Thi = N[C@@H](Cc1ccsc1)C(=O)O; PyrS2(4) = not defined here
Write the answer as a number in µM, unit excluded.

Worked set:
Binder	NanoBRET Abs IC50 [µM]
Ac-[αAllylPro]D[tBuAla][B5(4)]D[Phe(3-COOH)]SAFL[PyrS2″][Phe(2-CF3)][Bta]A-NH2 (staple 1-4, 4-11) [I-2059]	4.8
Ac-[αAllylPro]D[tBuAla][B5(4)]D[Phe(3-COOH)]AAFL[PyrS2″][Phe(2-Cl)][Bta][Met(O2)]-NH2 (staple 1-4, 4-11) [I-2062]	3
Ac-[αAllylPro]D[tBuAla][B5(4)]D[Phe(3-COOH)]AAFL[PyrS2(4)][3Thi][Bta][Met(O2)]-NH2 (staple 1-4, 4-11; reading uncertain; also: printed as Ac-PL3-Asp-Npg-B5-Asp-3COOHF-Ala-Ala-Phe-Leu-PyrS2-3Thi-BztA-Met2O-NH2) [I-2061]	1.9
Ac-[αAllylPro]D[tBuAla][B5(4)]D[Phe(3-COOH)]TAFL[PyrS2″][Phe(2-CF3)][Bta]A-NH2 (staple 1-4, 4-11) [I-2060]	9.6
Ac-[αAllylPro]D[tBuAla][B5(4)]D[Phe(3-COOH)]QAFV[PyrS2″][3Thi][Bta]A-NH2 (staple 1-4, 4-11) [I-2054]	2.4

Pending binder:
Exercise: Fill in the blank: the reported NanoBRET Abs IC50 of Ac-[αAllylPro]D[tBuAla][B5(4)]D[Phe(3-COOH)][Met(O2)]AFL[PyrS2″][3Thi][Bta]A-NH2 (staple 1-4, 4-11) [I-2064] is ____.
Key: 11.8
